Entry source: ChEMBL document CHEMBL4177551

Consider the following compounds; for each one, report its IC50.
# Tested on: A549
# protocol: Cytotoxicity against human A549 cells assessed as inhibition of cell growth by SRB assay
# Assay type: functional, cell-based
Give bare numbers, in µM.

Field: example entries. Status: answers known.
compoundsmiles=C=C(C)[C@@H]1CC[C@]2(C(=O)O)CC[C@]3(C)[C@H](CC[C@@H]4[C@@]5(C)CC[C@H](OC(=O)/C=C\c6ccc(O)c(O)c6)C(C)(C)[C@@H]5CC[C@]43C)[C@@H]12 endpointresult=0.9
compoundsmiles=C=C(C)[C@@H]1CC[C@]2(C(=O)O)CC[C@]3(C)[C@H](CC[C@@H]4[C@@]5(C)CC[C@H](OC(=O)/C=C/c6ccc(O)c(O)c6)C(C)(C)[C@@H]5CC[C@]43C)[C@@H]12 endpointresult=9.9

Proceeding to the next compound to report its IC50.
Specify measured IC50 for C=C(C)[C@@H]1CC[C@]2(C(=O)O)CC[C@]3(C)[C@H](CC[C@@H]4[C@@]5(C)CC[C@H](O)C(C)(C)[C@@H]5CC[C@]43C)[C@@H]12 .
3.1

----------
# protocol: Cytotoxicity in mouse BV2 cells assessed as cell viability at 20 uM incubated for 24 hrs by MTT assay relative to untreated control
# Type: cell-based, BV-2
# measurementConditions: read-out: Activity
property: viability at 24 h, 20 µM (%)
Numbers only, in %.

Sample answers from the record:
compoundsmiles=C=C(C)[C@@H]1CC[C@]2(C(=O)O)CC[C@]3(C)[C@H](CC[C@@H]4[C@@]5(C)C[C@@H](O)[C@H](O)C(C)(C)[C@@H]5CC[C@]43C)[C@@H]12 property="viability at 24 h, 20 µM" unitabbreviation=% endpointresult=71
compoundsmiles=C[C@H]1[C@H](C)CC[C@]2(C(=O)O)CC[C@]3(C)C(=CC[C@@H]4[C@@]5(C)C[C@@H](O)[C@H](O)C(C)(C)[C@@H]5CC[C@]43C)[C@H]12 property="viability at 24 h, 20 µM" unitabbreviation=% endpointresult=100
compoundsmiles=C=C(C)[C@@H]1CC[C@]2(CO)CC[C@]3(C)[C@H](CC[C@@H]4[C@@]5(C)CC[C@H](O)[C@](C)(CO)[C@@H]5CC[C@]43C)[C@@H]12 property="viability at 24 h, 20 µM" unitabbreviation=% endpointresult=88

Working through the 6 compounds below one at a time, give viability at 24 h, 20 µM for each.
1. CC1(C)CC[C@]2(C(=O)O)CC[C@]3(C)C(=CC[C@@H]4[C@@]5(C)C[C@@H](O)[C@H](O)C(C)(C)[C@@H]5CC[C@]43C)[C@@H]2C1
2. C=C(C)[C@@H]1CC[C@]2(C(=O)O)CC[C@]3(C)[C@H](CC[C@@H]4[C@@]5(C)CC[C@H](O)C(C)(C)[C@@H]5CC[C@]43C)[C@@H]12
3. CC1(C)CC[C@]2(C(=O)O)CC[C@]3(C)C(=CC[C@@H]4[C@@]5(C)C[C@@H](O)[C@@H](O)C(C)(C)[C@@H]5CC[C@]43C)[C@@H]2C1
4. C=C(C)[C@@H]1CC[C@]2(C(=O)O)CC[C@]3(C)[C@H](CC[C@@H]4[C@@]5(C)CC[C@H](OC(=O)/C=C\c6ccc(O)c(O)c6)C(C)(C)[C@@H]5CC[C@]43C)[C@@H]12
5. CNC(=N)NCCC[C@H](N)C(=O)O
6. COc1cc(/C=C\C(=O)O[C@H]2[C@H](O)C[C@]3(C)[C@H]4CC=C5[C@H]6[C@](C(=O)O)(CC[C@@H](C)[C@@]6(C)O)CC[C@@]5(C)[C@]4(C)CC[C@H]3C2(C)C)ccc1O

1: 30.4; 2: 59.6; 3: 87; 4: 35.3; 5: 114; 6: 111
